- System: 885724-159-R-J1-PDC complex spheroid viability;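 also: spheroids exposed to compounds for 7 days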
- experiment: Anticancer human tumor 885724-159-R-J1-PDC patient-derived pancreatic adenocarcinoma cell line growth inhibition [POLQ]; active = viability on the fitted dose curve at most 10% of control; inactive = the rest
- setup conditions: second compound 0.316 µM; first compound 10 µM
- Description: Multicellular complex tumor spheroid response to Polymerase (POL) inhibitors (novobiocin, ART-558, RP6685) in combination with a variety of drugs and investigational agents in selected tumor cell lines The POL inhibitors (novobiocin, ART-558, and RP6685) were evaluated both individually and in combination with standard of care and investigational anticancer small molecules within a complex spheroid model of solid tumors. . […]
Select the correct class. Options are active, inactive and nothing else.

*Q* Test call, this compound: CC1COCCN1c1cc(-c2ccnn2C)c2ccnc(-c3ccn[nH]3)c2n1 (stereo not given) + Cc1cccc(N(C)C(=O)C2C(O)CCN2c2nc(C)cc(C(F)(F)F)c2C#N)c1
*A* inactive

*Q* Test call, this compound: COc1ccc([C@@H](O)c2cc(-c3ncnc4cc(N5CCOCC5)ccc34)c(F)cc2Cl)nn1 + Nc1ccc(C#CCN(C(=O)Cc2ncc(C(F)(F)F)cc2C(F)(F)F)c2ccc(F)cc2)nn1
*A* inactive

*Q* Test call, this compound: CCc1cc2c(N3CCc4c(cc(Cn5ccnc5)cc4-c4cn(C)nc4C(F)(F)F)C3=O)ccnc2c(OC)n1 + Cc1cccc(N(C)C(=O)C2C(O)CCN2c2nc(C)cc(C(F)(F)F)c2C#N)c1
*A* inactive

*Q* Test call, this compound: COc1cccc2c1C(=O)c1c(O)c3c(c(O)c1C2=O)CC(O)(C(=O)CO)CC3OC1CC(N)C(O)C(C)O1 (stereo not given) + COC1C(OC(N)=O)C(O)C(Oc2ccc3c(O)c(NC(=O)c4ccc(O)c(CC=C(C)C)c4)c(=O)oc3c2C)OC1(C)C
*A* active

*Q* Test call, this compound: COc1cc2cc(C(=O)CCC(=O)O)sc2cc1OC + Nc1ccc(C#CCN(C(=O)Cc2ncc(C(F)(F)F)cc2C(F)(F)F)c2ccc(F)cc2)nn1
*A* inactive
